Entries and their IC50 values follow.
measurementTarget: Human PD-L1/PD-1 (Homo sapiens, UniProt Q9NZQ7)
Construct: made in house; host or cells: HEK293T
Sequence (Q9NZQ7 with tags, fused parts or gaps): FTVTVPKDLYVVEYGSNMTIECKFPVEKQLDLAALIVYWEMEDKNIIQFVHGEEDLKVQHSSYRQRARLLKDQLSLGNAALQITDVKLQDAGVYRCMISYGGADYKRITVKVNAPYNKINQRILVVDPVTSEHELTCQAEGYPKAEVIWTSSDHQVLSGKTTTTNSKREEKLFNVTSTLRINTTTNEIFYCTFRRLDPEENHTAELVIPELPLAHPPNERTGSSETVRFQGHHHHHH
procedureSummary: HTRF PD-1-Ig/PD-L1-His binding assay (human PD-L1)
measurementSetup: cluster symbol; read-out: HTRF IC50 cluster
Positions of bridges follow the written chain, without caps; N, C: chain ends. Non-standard residues stand in square brackets, D forms with d. Residues, ends and D or L forms follow the SMILES beside them. ξ: configuration not given here. Ala(4-thiazolyl) = N[C@@H](Cc1cscn1)C(=O)O; NMe2Nal = CN[C@@H](Cc1ccc2ccccc2c1)C(=O)O; Phe(3-Cl) = N[C@@H](Cc1cccc(Cl)c1)C(=O)O; Phe(4-Me) = Cc1ccc(C[C@H](N)C(=O)O)cc1; Hyp = O=C(O)[C@@H]1C[C@@H](O)CN1; NMeF = CN[C@@H](Cc1ccccc1)C(=O)O; dNMeNle = CCCC[C@@H](NC)C(=O)O; NMeNle = CCCC[C@H](NC)C(=O)O; NMeA = CN[C@@H](C)C(=O)O; Orn = NCCC[C@H](N)C(=O)O; dDap = NC[C@@H](N)C(=O)O; Dab = NCC[C@H](N)C(=O)O; ξP = O=C(O)C1CCCN1; ξC = NC(CS)C(=O)O; Sar = CNCC(=O)O

CCCC[C@H]1C(=O)N(C)CC(=O)N[C@@H](CC(=O)O)C(=O)N[C@@H](C(C)C)C(=O)N[C@@H](Cc2cccc(Cl)c2)C(=O)N[C@@H](Cc2ccc(O)cc2)C(=O)N(C)CC(=O)N[C@@H](Cc2c[nH]c3ccccc23)C(=O)N[C@@H](Cc2ccc(O)cc2)C(=O)N[C@@H](CC(C)C)C(=O)N[C@H](C(=O)NCC(N)=O)CSCC(=O)N[C@@H](Cc2ccccc2)C(=O)N(C)[C@@H](Cc2ccccc2)C(=O)N1C [Example 3131] ({CH2CO}-F[NMeF][NMeNle][Sar]DV[Phe(3-Cl)]Y[Sar]WYLCG-NH2; thioether N-13)
> 30.5 nM
CCCC[C@H]1C(=O)N(C)[C@@H](CCCC)C(=O)N[C@@H](C)C(=O)N[C@H](C(=O)NCC(=O)O)CSCC(=O)N[C@@H](Cc2ccc(O)cc2)C(=O)N(C)[C@@H](C)C(=O)N[C@@H](CC(N)=O)C(=O)N2CCC[C@H]2C(=O)N[C@@H](Cc2cnc[nH]2)C(=O)N[C@@H](CC(C)C)C(=O)N[C@@H](CCCN)C(=O)N[C@@H](Cc2c[nH]c3ccccc23)C(=O)N[C@@H](CO)C(=O)N[C@@H](Cc2csc3ccccc23)C(=O)N1C [Example 1153]
> 30.5 nM
CCCC[C@H]1C(=O)N(C)[C@@H](CCCC)C(=O)N[C@@H](CCCNC(=N)N)C(=O)NC(C(=O)NCC(N)=O)CSCC(=O)N[C@@H](Cc2ccc(O)cc2)C(=O)N(C)[C@@H](C)C(=O)N[C@@H](CC(N)=O)C(=O)N2CCC[C@H]2C(=O)N[C@@H](Cc2c[nH]cn2)C(=O)NCC(=O)N[C@@H](CC(C)C)C(=O)N2CCC[C@H]2C(=O)N[C@@H](Cc2c[nH]c3ccccc23)C(=O)N[C@@H](CO)C(=O)N[C@@H](Cc2c[nH]c3ccccc23)C(=O)N1C (some centres unmarked) [Example 10516] ({CH2CO}-Y[NMeA]NPHGLPWSW[NMeNle][NMeNle]R[ξC]G-NH2; thioether N-15)
> 30.5 nM
CCCC[C@H]1C(=O)N(C)CC(=O)N[C@@H](CC(N)=O)C(=O)N[C@@H](C(C)C)C(=O)N(C)[C@@H](Cc2ccccc2)C(=O)N[C@@H](Cc2ccc(O)cc2)C(=O)N(C)CC(=O)N[C@@H](Cc2c[nH]c3ccccc23)C(=O)N[C@@H](Cc2ccc(O)cc2)C(=O)N[C@@H](CCCN)C(=O)N[C@H](C(=O)NCC(N)=O)CSCC(=O)N[C@@H](Cc2ccccc2)C(=O)N(C)[C@@H](Cc2ccc3ccccc3c2)C(=O)N1C [Example 3603] ({CH2CO}-F[NMe2Nal][NMeNle][Sar]NV[NMeF]Y[Sar]WY[Orn]CG-NH2; thioether N-13)
6.76 to 30.3 nM
CCCC[C@@H]1C(=O)N(C)[C@H](CCCC)C(=O)N[C@@H](C)C(=O)N[C@@H](C(=O)NCC(N)=O)CSCC(=O)N[C@@H](Cc2ccc(O)cc2)C(=O)N2CCCC2C(=O)N[C@H](CC(N)=O)C(=O)N2CCC[C@H]2C(=O)N[C@H](CN)C(=O)N[C@@H](CCC(N)=O)C(=O)N2CCCC2C(=O)N[C@H](Cc2c[nH]c3ccccc23)C(=O)N[C@@H](CCN)C(=O)N[C@@H](Cc2c[nH]c3ccccc23)C(=O)N1C (some centres unmarked) [Example 1211] ({CH2CO}-Y[ξP][dN]P[dDap]Q[ξP][dW][Dab]W[dNMeNle][dNMeNle]A[dC]G-NH2; thioether N-14)
6.76 to 30.3 nM
CCCC[C@H]1C(=O)N(C)[C@@H](CCCC)C(=O)N[C@@H](CCCNC(=N)N)C(=O)N[C@H](C(=O)NCC(N)=O)CSCC(=O)N[C@@H](Cc2ccc(O)cc2)C(=O)N(C)[C@@H](C)C(=O)N[C@@H](CCN)C(=O)N2CCC[C@H]2C(=O)N[C@@H](C)C(=O)N[C@@H](CCC(=O)O)C(=O)N2C[C@H](O)C[C@H]2C(=O)N[C@@H](Cc2c[nH]c3ccccc23)C(=O)N[C@@H](CO)C(=O)N[C@@H](Cc2c[nH]c3ccccc23)C(=O)N1C [Example 1155] ({CH2CO}-Y[NMeA][Dab]PAE[Hyp]WSW[NMeNle][NMeNle]RCG-NH2; thioether N-14)
6.76 to 30.3 nM
CCCC[C@H]1C(=O)N(C)CC(=O)N[C@@H](CC(=O)O)C(=O)N[C@@H](C(C)C)C(=O)N(C)[C@@H](Cc2ccccc2)C(=O)N[C@@H](Cc2ccc(O)cc2)C(=O)N(C)CC(=O)N[C@@H](Cc2c[nH]c3ccccc23)C(=O)N[C@@H](Cc2ccc(O)cc2)C(=O)N[C@@H](CC(C)C)C(=O)N[C@H](C(=O)NCC(N)=O)CSCC(=O)N[C@@H](Cc2ccc(C)cc2)C(=O)N(C)[C@@H](Cc2ccccc2)C(=O)N1C [Example 3094] ({CH2CO}-[Phe(4-Me)][NMeF][NMeNle][Sar]DV[NMeF]Y[Sar]WYLCG-NH2; thioether N-13)
6.76 to 30.3 nM

Could you now look at the following compound, please?
In plain terms, CCCC[C@H]1C(=O)N(C)CC(=O)N[C@@H](CC(=O)O)C(=O)N[C@@H](C(C)C)C(=O)N(C)[C@@H](Cc2ccccc2)C(=O)N[C@@H](Cc2ccc(O)cc2)C(=O)N(C)CC(=O)N[C@@H](Cc2c[nH]c3ccccc23)C(=O)N[C@@H](Cc2ccc(O)cc2)C(=O)N[C@@H](CC(C)C)C(=O)N[C@H](C(=O)NCC(N)=O)CSCC(=O)N[C@@H](Cc2cscn2)C(=O)N(C)[C@@H](Cc2ccccc2)C(=O)N1C [Example 3092] ({CH2CO}-[Ala(4-thiazolyl)][NMeF][NMeNle][Sar]DV[NMeF]Y[Sar]WYLCG-NH2; thioether N-13) has a documented IC50 of > 30.5 nM

* * *

measurementTarget: LK35.2-hPD-L1 cells / PE-labeled PD-1-Ig (Homo sapiens)
Construct: expressed in transfected cells; host or cells: LK35.2 mouse B cell line
Sequence (Q9NZQ7 19-290): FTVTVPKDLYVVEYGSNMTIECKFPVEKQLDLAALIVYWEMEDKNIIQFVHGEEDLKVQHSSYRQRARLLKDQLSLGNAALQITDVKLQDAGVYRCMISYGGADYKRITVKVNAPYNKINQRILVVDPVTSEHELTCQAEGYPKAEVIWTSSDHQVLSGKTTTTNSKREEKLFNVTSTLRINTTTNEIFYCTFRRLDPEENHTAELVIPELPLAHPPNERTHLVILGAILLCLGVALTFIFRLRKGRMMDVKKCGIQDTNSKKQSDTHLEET
procedureSummary: LK35.2-hPD-L1 cell binding high-content screening assay
Assay type: cell-based
measurementSetup: cell binding assay, cell line not given; cluster symbol; read-out: CBA IC50 cluster
pIC50: −log10 of the molar value. Starred links: 1 amine or outer side, 2 acyl side, 3 side chain; linkers in the order of their positions; H or OH if unused. Positions of bridges follow the written chain, without caps; N, C: chain ends. Non-standard residues stand in square brackets, D forms with d. Residues, ends and D or L forms follow the SMILES beside them. ξ: configuration not given here. Bip = N[C@@H](Cc1ccc(-c2ccccc2)cc1)C(=O)O; X1 = C[C@@H]1C[C@H](C(=O)[*:2])N([*:1])C1; Phe(3-F) = N[C@@H](Cc1cccc(F)c1)C(=O)O; Bta = N[C@@H](Cc1csc2ccccc12)C(=O)O; Hyp = O=C(O)[C@@H]1C[C@@H](O)CN1; NMeF = CN[C@@H](Cc1ccccc1)C(=O)O; NMeNle = CCCC[C@H](NC)C(=O)O; NMeM = CN[C@@H](CCSC)C(=O)O; NMeA = CN[C@@H](C)C(=O)O; Dab = NCC[C@H](N)C(=O)O; Dap = NC[C@H](N)C(=O)O; ξC = NC(CS)C(=O)O; Sar = CNCC(=O)O
parameterMeasured: pIC50

CCCC[C@H]1C(=O)N(C)[C@@H](COc2cccc(C)c2)C(=O)N[C@@H](CC(C)C)C(=O)N[C@H](C(=O)NCC(N)=O)CSCC(=O)N[C@@H](Cc2ccc(O)cc2)C(=O)N(C)[C@@H](C)C(=O)N[C@@H](CC(N)=O)C(=O)N2CCC[C@H]2C(=O)N[C@@H](CN)C(=O)N[C@@H](CC(C)C)C(=O)N2C[C@H](O)C[C@H]2C(=O)N[C@@H](Cc2c[nH]c3ccccc23)C(=O)N[C@@H](CCN)C(=O)N[C@@H](Cc2c[nH]c3ccccc23)C(=O)N1C
7.14 to 8.32
CCCC[C@H]1C(=O)N(C)[C@@H](CCCC)C(=O)N[C@@H](CCCNC(=N)N)C(=O)N[C@H](C(=O)NCC(N)=O)CSCC(=O)N[C@@H](Cc2cccc(F)c2)C(=O)N(C)[C@@H](C)C(=O)N[C@@H](CC(N)=O)C(=O)N2CCC[C@H]2C(=O)N[C@@H](Cc2cnc[nH]2)C(=O)N[C@@H](CC(C)C)C(=O)N2CCC[C@H]2C(=O)N[C@@H](Cc2c[nH]c3ccccc23)C(=O)N[C@@H](CO)C(=O)N[C@@H](Cc2c[nH]c3ccccc23)C(=O)N1C [Example 7016] ({CH2CO}-[Phe(3-F)][NMeA]NPHLPWSW[NMeNle][NMeNle]RCG-NH2; thioether N-14)
7.14 to 8.32
CCCC[C@H]1C(=O)N(C)CC(=O)N[C@@H](CC(=O)O)C(=O)N[C@@H](C(C)C)C(=O)N(C)[C@@H](Cc2ccccc2)C(=O)N[C@@H](Cc2ccc(O)cc2)C(=O)N(C)CC(=O)N[C@@H](Cc2ccc(-c3ccccc3)cc2)C(=O)N[C@@H](Cc2ccc(O)cc2)C(=O)N[C@@H](CC(C)C)C(=O)N[C@H](C(=O)NCC(N)=O)CSCC(=O)N[C@@H](Cc2ccccc2)C(=O)N(C)[C@@H](Cc2ccccc2)C(=O)N1C [Example 3545] ({CH2CO}-F[NMeF][NMeNle][Sar]DV[NMeF]Y[Sar][Bip]YLCG-NH2; thioether N-13)
< 7.13

In plain terms, CCCC[C@H]1C(=O)N(C)[C@@H](CCSC)C(=O)N[C@@H](CCCNC(=N)N)C(=O)NC(C(=O)NCC(N)=O)CSCC(=O)N[C@@H](Cc2ccc(O)cc2)C(=O)N(C)[C@@H](C)C(=O)N[C@@H](CC(N)=O)C(=O)N2CCC[C@H]2C(=O)N[C@@H](CN)C(=O)N[C@@H](CC(C)C)C(=O)N2C[C@H](O)C[C@H]2C(=O)N[C@@H](Cc2c[nH]c3ccccc23)C(=O)N[C@@H](CO)C(=O)N[C@@H](Cc2csc3ccccc23)C(=O)N1C (some centres unmarked) [Example 9084] ({CH2CO}-Y[NMeA]NP[Dap]L[Hyp]WS[Bta][NMeNle][NMeM]R[ξC]G-NH2; thioether N-14) has a documented pIC50 of 8.33 to 9.80

In plain terms, CCCC[C@H]1C(=O)N(C)[C@@H](CCCC)C(=O)N[C@@H](C(C)C)C(=O)N[C@H](C(=O)NCC(N)=O)CSCC(=O)N[C@@H](Cc2ccccc2)C(=O)N(C)[C@@H](C)C(=O)N[C@@H](CC(N)=O)C(=O)N2CCC[C@H]2C(=O)N[C@@H](Cc2cnc[nH]2)C(=O)N[C@@H](CC(C)C)C(=O)N(C)CC(=O)N[C@@H](Cc2c[nH]c3ccccc23)C(=O)N[C@@H](CO)C(=O)N[C@@H](Cc2c[nH]c3ccccc23)C(=O)N1C [Example 5016] ({CH2CO}-F[NMeA]NPHL[Sar]WSW[NMeNle][NMeNle]VCG-NH2; thioether N-14) has a documented pIC50 of 7.14 to 8.32

In plain terms, CCCC[C@H]1C(=O)N(C)CC(=O)N[C@@H](CC(=O)O)C(=O)N[C@@H](C(C)C)C(=O)N(C)[C@@H](Cc2ccccc2)C(=O)N[C@@H](Cc2ccc(O)cc2)C(=O)N2C[C@H](C)C[C@@H]2C(=O)N[C@@H](Cc2c[nH]c3ccccc23)C(=O)N[C@@H](Cc2ccc(O)cc2)C(=O)N[C@@H](CC(C)C)C(=O)N[C@H](C(=O)NCC(N)=O)CSCC(=O)N[C@@H](Cc2ccccc2)C(=O)N(C)[C@@H](Cc2ccccc2)C(=O)N1C [Example 3578] ({CH2CO}-F[NMeF][NMeNle][Sar]DV[NMeF]Y[X1]WYLCG-NH2; thioether N-13) has a documented pIC50 of 8.33 to 9.80

In plain terms, CCCC[C@H]1C(=O)N(C)[C@@H](CCCC)C(=O)N[C@@H](CN)C(=O)N[C@H](C(=O)NCC(N)=O)CSCC(=O)N[C@@H](Cc2ccc(O)cc2)C(=O)N(C)[C@@H](C)C(=O)N[C@@H](CC(N)=O)C(=O)N2CCC[C@H]2C(=O)N[C@@H](CN)C(=O)N[C@@H](CC(C)C)C(=O)N2C[C@H](O)C[C@H]2C(=O)N[C@@H](Cc2c[nH]c3ccccc23)C(=O)N[C@@H](CCN)C(=O)N[C@@H](Cc2c[nH]c3ccccc23)C(=O)N1C [Example 5059] ({CH2CO}-Y[NMeA]NP[Dap]L[Hyp]W[Dab]W[NMeNle][NMeNle][Dap]CG-NH2; thioether N-14) has a documented pIC50 of 7.14 to 8.32

In plain terms, CCCC[C@H]1C(=O)N(C)[C@@H](CCCC)C(=O)N[C@@H](CCCNC(=N)N)C(=O)N[C@H](C(=O)NCC(N)=O)C/C=C/C(=O)N[C@@H](Cc2ccc(O)cc2)C(=O)N(C)[C@@H](C)C(=O)N[C@@H](CC(N)=O)C(=O)N2CCCC2C(=O)N[C@@H](CN)C(=O)N[C@@H](CC(C)C)C(=O)N2C[C@H](O)C[C@H]2C(=O)N[C@@H](Cc2c[nH]c3ccccc23)C(=O)N[C@@H](CO)C(=O)N[C@@H](Cc2c[nH]c3ccccc23)C(=O)N1C (some centres unmarked) has a documented pIC50 of 7.14 to 8.32
